Value source: ChEMBL document CHEMBL1201862

- Tested on: M14
- procedure-text: NCI tumour cell line growth inhibition, 48 h
The whole screen tested about 57,000 sequences, of which about 4,000 (7%) were called active. These entries were drawn from the full list. Results with a measured potency or affinity are listed apart.
Label 1 when GI50 is strictly below 4 µM; at or above that, label -1.

| substance | qualitative-label |
| --- | --- |
| [Bis(aminomethyl)ethylmethylsilane]tetrachloroplatinum(IV), CHEMBL2146192 | 1 |
| [Bis(aminomethyl)dimethylsilane]tetrachloroplatinum(IV), CHEMBL2146190 | -1 |
| CISPLATIN, CHEMBL11359 | 1 |
| cis-Bis[[(trimethylsilyl)methyl]amino]tetrachloroplatinum(IV), CHEMBL2146191 | 1 |
| [Bis(aminomethyl)tetramethylenesilane]dichloropaltinum(II), CHEMBL2146205 | -1 |
| [Bis(aminomethyl)pentamethylenesilane]tetrachloropaltinum(IV), CHEMBL2146204 | 1 |
| mu-(1,7-nanodiamine-N,N')bis-(cis-aminedichloroplatimum (II)), CHEMBL2146215 | -1 |
